- ASSAY_SYSTEM: hCB2 (Homo sapiens, UniProt P34972)
- Sequence (P34972 whole entry): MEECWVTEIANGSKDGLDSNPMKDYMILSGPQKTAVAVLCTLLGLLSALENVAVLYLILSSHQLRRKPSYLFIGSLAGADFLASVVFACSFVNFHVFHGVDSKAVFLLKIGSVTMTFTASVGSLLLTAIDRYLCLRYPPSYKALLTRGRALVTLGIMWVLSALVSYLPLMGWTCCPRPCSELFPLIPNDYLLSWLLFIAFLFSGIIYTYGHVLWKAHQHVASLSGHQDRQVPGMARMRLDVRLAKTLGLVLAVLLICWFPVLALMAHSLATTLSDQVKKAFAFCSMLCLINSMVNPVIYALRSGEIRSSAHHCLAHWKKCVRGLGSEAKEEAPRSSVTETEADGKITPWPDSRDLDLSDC
- TEST_NAME: Antagonism of CB2 receptors expressed in CHO cells, cAMP assay against CP 55,940 (Protocol IX.1)
- Type: cell-based
- Design: expressed in transfected cells; host or cells: CHO (h-CB2/CHO, G418-selected)
- SETUP_CONDITIONS: CHO, h-CB2/CHO cells, vs 10 nM CP 55,940
- Experimental: IX. Assay for Determining Agonist and Antagonist Activity to CB1 and CB2 Receptors 1. Antagonism of CB1/CB2 Receptors Expressed in CHO Cells. h-CB1/CHO or h-CB2/CHO cells were grown in HAM's F12 DMEM medium (Sigma) with 10% FBS (Hyclone), 1% penicillin-streptomycin solution and 400 μg/ml of G418 (Sigma). […] EC50 values were calculated from dose response curves by nonlinear regression analysis using PRISM software.
Label condition met when inhibition at 10 µM >= 20%; otherwise condition not met.

| COMPOUND | CLASS_ASSIGNMENT |
| --- | --- |
| O=C(NCc1ccccc1F)c1nn(-c2ccc(Cl)cc2Cl)c2c1C1CCC2C1 (centres unmarked) | condition met |
| O=C(NCc1ccc(Cl)cc1Cl)c1nn(-c2ccc(Cl)cc2Cl)c2c1C1CCC2C1 (centres unmarked) | condition met |
| O=C(NCC1CCCCC1)c1nn(-c2ccc(Cl)cc2Cl)c2c1C1CCC2C1 (centres unmarked) | condition met |
| O=C(NCc1ccc(Cl)cc1Cl)c1nn(-c2ccc(Cl)cc2)c2c1C1CCC2C1 (centres unmarked) | condition met |
| O=C(NC(CO)c1ccccc1)c1nn(-c2ccc(F)cc2F)c2c1C1CCC2C1 (centres unmarked) | condition not met |
| CC(C)(C)NC(=O)c1nn(-c2ccc(F)cc2)c2c1C1CCC2C1 (centres unmarked) | condition not met |
| O=C(NCc1ccc(F)cc1F)c1nn(-c2ccc(Cl)cc2Cl)c2c1C1CCC2C1 (centres unmarked) | condition met |
| O=C(NNc1ccccc1F)c1nn(-c2ccc(F)cc2F)c2c1C1CCC2C1 (centres unmarked) | condition not met |
